Test system: SF-539
Test: NCI tumour cell line growth inhibition, 48 h
Activity calls are given as the source filed them. Rule as the data show it: active = GI50 up to about 1.1 µM and inactive = higher.
Labels: active, inactive

Compound	Tested system	Label value
CC(=O)OCC1OC(NC(=O)N(CCCl)N=O)C(OC(C)=O)C(OC(C)=O)C1OC(C)=O (configuration not stated)	SF-539	inactive
COC(=O)[C@@H]1CC(C(C[N+](=O)[O-])c2ccc(O[Si](C)(C)C(C)(C)C)cc2)C(=O)N1C(=O)OC(C)(C)C (some centres not stated)	SF-539	inactive
CSC1=Nc2ccccc2-c2nc3ccccc3cc2C1	SF-539	inactive
CCOP(C)(=O)/C(Cc1ccc(OC)c(OC)c1)=N\O (configuration not stated)	SF-539	inactive
Clc1c(C(Cl)(Cl)Cl)nsc1N1CCCCC1	SF-539	inactive
CCOP(=O)(O)CN1CCNCCN(CP(=O)(O)OCC)CCNCC1	SF-539	inactive
COc1cc(/C=C(\C#N)c2nc3ccccc3o2)ccc1O	SF-539	inactive
Cc1c(-c2ccccc2)[nH]n(C2=NCCN2)c1=O	SF-539	inactive
O=c1c2ccccc2nc(-c2ccccc2)n1NC(=S)Nc1ccccc1	SF-539	inactive
COc1ccc(CC(C#N)c2cc(OC)c(OC)c(OC)c2)cc1 (configuration not stated)	SF-539	active
CC1CC/C(=C\c2ccc(F)cc2)C2=C1C(c1ccc(F)cc1)NC(=S)N2 (configuration not stated)	SF-539	inactive
O=C(O)c1ccc(Nc2nc3nn(Cc4ccccc4)cc3c(=O)s2)cc1	SF-539	inactive

###

System: HL-60
Test: NCI tumour cell line growth inhibition, 48 h
Calls of active or inactive are those of the source. Rule as the data show it: active = GI50 up to about 1.1 µM and inactive = higher.
Labels: Y = active, N = inactive

Molecule	Label value
CCC1(O)C(=O)OCc2c1cc1n(c2=O)Cc2cc3ccc(CO)cc3nc2-1 (stereo unspecified)	N
COC(=O)[C@@]12OC[C@]34C([C@@H](O)C1O)[C@@]1(C)CC(=O)C(O)=C(C)C1C[C@H]3OC(=O)[C@H](OC(=O)/C=C(/c1ccccc1)C(F)(F)F)[C@H]42 (stereo partly specified)	Y
NCCN1CCCCCc2ccccc21	N
Nc1ccc2c(=O)cc(-c3cccs3)[nH]c2n1	Y
COc1ccc(CC(C#N)c2cc(OC)c(OC)c(OC)c2)cc1 (stereo unspecified)	Y
O=c1c2ccccc2nc(-c2ccccc2)n1NC(=S)Nc1ccccc1	N
CCOc1cc2c(=O)oc3c(OC)ccc4ccc(c1OC)c2c43	N
CCc1cccc(C)c1NC(=O)CC1C(=O)Nc2ccccc2S1(=O)=O (stereo unspecified)	N
CC(=O)OCC1OC(n2c(-c3ccc(Cl)cc3)ccc(C#N)c2=S)C(OC(C)=O)C(OC(C)=O)C1OC(C)=O (stereo unspecified)	N
CCOc1ccccc1-c1nc2c(s1)C(=O)c1ccccc1C2=O	N
CC(C)C1=CCC2C(=C1)CCC1C(C)(C(=O)O)CCCC21C (stereo unspecified)	N
Oc1cccc(C2SCc3nc4ccccc4n32)c1 (stereo unspecified)	N
Cc1cc2nc(C=C(C(F)(F)F)C(F)(F)F)sc2cc1C	Y
CC1=NC(=N)N=C(C)C1/N=N/c1ccc2[nH]c(C)nc2c1 (stereo unspecified)	N
C/C=C/[P+](c1ccccc1)(c1ccccc1)c1ccccc1	Y
Cc1cccc2nc3n(c12)C(=O)c1ccccc1-3	N
CC1=CC2=C(C)C3(CC3)[C@@](C)(O)C(=O)C2=C1	Y
COc1ccc(C2C=C(c3ccc(C)cc3)N(c3ccc(OC)cc3[N+](=O)[O-])C3C(=O)OC(=O)C23)c(OC)c1 (stereo unspecified)	N
CC(=O)OC12CC[N+]3(C)CCCCC3C1=Nc1ccccc12 (stereo unspecified)	N
CC(=O)N1CC2Nc3ccccc3C2CC1CO (stereo unspecified)	N
CCC1=C(CC)C1(C#N)[N+](=O)[O-]	N
COc1ccc2oc(=O)c3c(c2c1C)OC(C)(C)C=C3	N
Cn1c(CO)ccc1-c1ccc(-c2ccc(CO)[se]2)[se]1	N
CCOC(=O)c1cnc(-n2[nH]c3c(c2=O)CCCC3)[nH]c1=O	N
COC(=O)NC12CC3CC(CC(F)(C3)C1)C2	N
NC1=Nc2cc(C(F)(F)F)ccc2Sc2nc3ccccc3n21	N

###

# Lookup of reported GI50 keyed by entry
System: HCT-15

Compound	GI50
Cc1cc(=O)n(-c2c(C)cccc2Cl)c(/C=C(\O)c2ccncc2)n1	> 100 µM
NC1=Nc2cc(C(F)(F)F)ccc2Sc2nc3ccccc3n21	> 100 µM
O=C1OC2C(O)COC2(O)C1(O)Cc1c[nH]c2ccccc12.O=C1OC2C(O)COC2(OCc2c[nH]c3ccccc23)C1O (centres undefined)	> 100 µM
CCC1(O)C(=O)OCc2c1cc1n(c2=O)Cc2cc3ccc(CO)cc3nc2-1 (centres undefined)	15.6 µM
[N-]=[N+]=C1C(=O)C2CC3CC(C2)CC1C3	> 100 µM
O=C1/C(=C/c2ccco2)NC(=S)N1CN1CCCCC1	28.6 µM
COc1ccc2nc3c([N+](=O)[O-])ccc4c3c(c2c1)N=CN4CCCN(C)C	0.53 µM
CN(C)CCCN1c2ccccc2CCc2cc([N+](=O)[O-])ccc21	18.5 µM
C/C(=C\c1ccccc1)C(=O)c1c(C)cc(C)cc1C	> 100 µM
CSC1=Nc2ccccc2-c2nc3ccccc3cc2C1	> 100 µM
CC(=O)OC(C)(C)/C=C/C(=O)[C@](C)(O)[C@H]1[C@H](O)C[C@@]2(C)[C@@H]3CC=C4[C@@H](C=C(O)C(=O)C4(C)C)[C@]3(C)C(=O)C[C@]12C [CUCURBITACIN E]	0.0278 µM
CCOP(C)(=O)/C(Cc1ccc(OC)c(OC)c1)=N\O (centres undefined)	> 100 µM
CCC1(c2ccc(OC)c(OC)c2)CCN2C(=O)C(O)CC21 (centres undefined)	> 100 µM
COc1cc2c(cc1OCCCC(=O)Nc1cc(C(=O)Nc3cc(C(=O)Nc4cc(C(=O)NCCCN(C)C)n(C)n4)n(C)c3)n(C)c1)N=CC1CCCN1C2=O (centres undefined)	28.5 µM
O=C1Cc2ccccc2N1/N=C\c1ccc([N+](=O)[O-])cc1	> 100 µM
CC1=CC2=C(C)C3(CC3)[C@@](C)(O)C(=O)C2=C1	0.193 µM
Nc1ccccc1NC(=O)c1ccc(CNC(=O)OCc2cccnc2)cc1 [ENTINOSTAT]	3.56 µM
CCCCCCCC1C(C)c2c([nH]c3ccccc23)C2C(=O)N(c3ccc(OC)cc3)C(=O)C21 (centres undefined)	> 7.76 µM
CC(=O)OC12CC[N+]3(C)CCCCC3C1=Nc1ccccc12 (centres undefined)	> 100 µM
O=C(NCCCCNCCCNC(=O)C(F)(F)F)C(F)(F)F	> 100 µM
CC(=O)c1cccc(C)c1C(=O)O	> 100 µM
CN1/C(=C\N=O)C(C)(C)N(O)C1(C)C	> 100 µM
CC(=O)OCC1OC(n2cc(F)c(=O)[nH]c2=O)C(OC(C)=O)C1OC(C)=O (centres undefined)	13.7 µM
O=c1c2ccccc2nc(-c2cc3c(cc2Cl)Sc2nccn2S3(=O)=O)n1-c1ccccc1	12.9 µM

###

# Lookup of reported GI50 keyed by entry
Tested on: NCI/ADR-RES
Experiment: NCI tumour cell line growth inhibition, 48 h
The source made the active and inactive calls. No stated cut-off is given here; in the data, active = GI50 up to about 1.1 µM and inactive = higher.

Molecule	GI50
[N-]=[N+]=NC(c1ccccc1)(c1ccccc1)c1ccccc1	16.7 µM (inactive)
O=C1CCc2ccc3c(c21)CC1(Cc2ccccc2C1)C3	5.5 µM (inactive)
COC(O)C(=O)c1c2c(cc3c1CCC3)CCCC2 (stereo unspecified)	14.7 µM (inactive)
CSc1nc2c(c(=O)[nH]1)N=C(c1ccccc1)CC(c1ccccc1)N2 (stereo unspecified)	24.4 µM (inactive)
c1cc2c(s1)-c1sccc1C21OCCO1	> 100 µM (inactive)
Cn1cc(S(=O)(=O)NC(=O)Nc2ccc(Cl)cc2)c2ccccc21	38.6 µM (inactive)

###

Test system: Malme-3M
Test: NCI tumour cell line growth inhibition, 48 h
Calls of active or inactive are those of the source. No stated cut-off is given here; in the data, active = GI50 up to about 1.1 µM and inactive = higher.
Readout type: GI50

Compound	Assay result
COC1=C(C(=O)OC(C)(C)C)[C@]2(C)C(C(=O)OC(C)(C)C)C(OC)=C(C(=O)OC(C)(C)C)[C@]2(C)C1C(=O)OC(C)(C)C (some centres undefined)	> 100 µM (inactive)
COc1ccc(Nc2nc(N)c(C(=O)c3cccs3)s2)cc1	30.1 µM (inactive)
O=C(/C=C1\Nc2ccc([N+](=O)[O-])cc2N=C1NC12CC3CC(CC(C3)C1)C2)c1ccccc1	> 10 µM (inactive)
CCOC(=O)C1C(=O)CC(O)(c2ccccc2)C(C(=O)OCC)C1c1ccc(N(C)C)cc1 (centres undefined)	18.2 µM (inactive)
CSC1=Nc2ccccc2-c2nc3ccccc3cc2C1	> 100 µM (inactive)
O=C(Cn1c2ccc(Br)cc2c2nc3ccccc3nc21)NNC(=O)NC1CCCCC1	52.2 µM (inactive)
CN(C)CCCN1c2ccccc2CCc2cc([N+](=O)[O-])ccc21	17.7 µM (inactive)
COc1cc2ccccc2c2cc([N+](=O)[O-])oc12	0.126 µM (active)
CC(=O)OC(C)(C)CCC(=O)[C@](C)(O)[C@H]1[C@H](O)C[C@@]2(C)[C@@H]3CC=C4C(C)=C(OC5OC(CO)C(O)C(O)C5O)C(=O)C[C@@H]4[C@]3(C)C(=O)C[C@]12C (some centres undefined)	> 100 µM (inactive)
